# test.target: human thrombin with His tag (human, UniProt P00734 328-622)
# assay: Biacore; ratio of KD on pro-thrombin to KD on thrombin
property.name: Selective activity

INSERT INTO results (binder, property_name, readout_number) VALUES
  ('aTM-1 (antibody, V domains shown) VH: EVQLVESGGGLVQPGGSLRLSCAASGFTFSDYYMAWVRQAPGKGLEWVSNINSDGSSTYYLDSLKSRFTISRDNSKNTLYLQMNSLKAEDTAVYYCARDHYIGASYVFDYWGQGTTVTVSS VL: DIQMTQSPSSLSASVGDRVTITCKASEDIYNRLAWYQQKPGKAPRLIISGATSLETGVPSRFSGSGSGKDYTLTISSLQPEDFATYYCQQYWSTPWTFGGGTKVEIK', 'Selective activity', 18.2),
  ('aTM-2 (antibody, V domains shown) VH: EVQLVESGGGLVQPGGSLRLSCAASGFTFSDYYMAWVRQAPGKGLEWVSNINSDGSSTYYLDSLKSRFTISRDNSKNTLYLQMNSLKAEDTAVYYCARDHYLGNSYVFDSWGQGTTVTVSS VL: DIQMTQSPSSLSASVGDRVTITCKASEDIYNRLAWYQQKPGKAPRLIISGATSLETGVPSRFSGSGSGKDYTLTISSLQPEDFATYYCQQYWSTPWTFGGGTKVEIK', 'Selective activity', 13.7);
